Each entry below carries its reported pIC50.
Tested on: 994946-033-R-J1-PDC complex spheroid viability;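 further: spheroids exposed to drugs for 7 days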
Experiment: Anticancer human tumor 994946-033-R-J1-PDC patient-derived melanoma cell line growth inhibition [POLQ]
Settings: curve of first compound; second compound 10 µM
pIC50: −log10 of the molar value.
Endpoint: pIC50

{"Compound": "O=C(Nc1ccc(O)c(NS(=O)(=O)c2ccc(F)cc2)c1)c1ccc(-c2ccccc2)cc1 + Nc1ccc(C#CCN(C(=O)Cc2ncc(C(F)(F)F)cc2C(F)(F)F)c2ccc(F)cc2)nn1", "Subject Of Test": "994946-033-R-J1-PDC complex spheroid viability", "Endpoint": "pIC50", "Observed Result": "< 5.00"}
{"Compound": "COc1cccc2c1C(=O)c1c(O)c3c(c(O)c1C2=O)CC(O)(C(=O)CO)CC3OC1CC(N)C(O)C(C)O1 (stereo not given) + Cc1cccc(N(C)C(=O)C2C(O)CCN2c2nc(C)cc(C(F)(F)F)c2C#N)c1", "Subject Of Test": "994946-033-R-J1-PDC complex spheroid viability", "Endpoint": "pIC50", "Observed Result": "> 7.50"}
{"Compound": "CNCc1ccc(-c2[nH]c3cc(F)cc4c3c2CCNC4=O)cc1 + COC1C(OC(N)=O)C(O)C(Oc2ccc3c(O)c(NC(=O)c4ccc(O)c(CC=C(C)C)c4)c(=O)oc3c2C)OC1(C)C", "Subject Of Test": "994946-033-R-J1-PDC complex spheroid viability", "Endpoint": "pIC50", "Observed Result": "< 5.00"}
{"Compound": "CCc1c2c(nc3ccc(O)cc13)-c1cc3c(c(=O)n1C2)COC(=O)[C@]3(O)CC + COC1C(OC(N)=O)C(O)C(Oc2ccc3c(O)c(NC(=O)c4ccc(O)c(CC=C(C)C)c4)c(=O)oc3c2C)OC1(C)C", "Subject Of Test": "994946-033-R-J1-PDC complex spheroid viability", "Endpoint": "pIC50", "Observed Result": "> 8.50"}
{"Compound": "C=CC(=O)N1CCN(c2nc(=O)n(-c3c(C)ccnc3C(C)C)c3nc(-c4c(O)cccc4F)c(F)cc23)C(C)C1 (stereo not given) + Nc1ccc(C#CCN(C(=O)Cc2ncc(C(F)(F)F)cc2C(F)(F)F)c2ccc(F)cc2)nn1", "Subject Of Test": "994946-033-R-J1-PDC complex spheroid viability", "Endpoint": "pIC50", "Observed Result": "< 5.00"}
